src = the supplement of paper PMC10724198

- Test system: Saccharomyces cerevisiae
- ASSAY COMMENT: protein stability index of tFT-peptide fusion (C-terminal peptide) (PSI (0-1 scale)); higher = more stable (slower turnover);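 also: PSI is a weighted mean of sequencing reads over stability bins, variants kept only with over 10 reads, mCherry proximal and sfGFP distal, peptide attached via GGGS linker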
- SETUP CONDITIONS: genetic background: das1 deletion; temperature: 30 C
Rule: class 1 for protein stability index not less than 0.6, class 0 for anything less.

Take a look at these entries with their results.
TVETYNRARKAS; class 1
WLCLFRFLGVAY; class 0
SVSRIFRTFSCY; class 1
GELVLVMYGIWV; class 0
VWSSSYVPLGVY; class 0
IKWRCLFCVCVL; class 0
GRSVGVTMFKNG; class 1
AERPVLIIIEFG; class 0

Then this sequence:
Enquiry: protein stability index >= 0.6 for `SGRATSSRTSEP` ?
Return: class 1

* * *

- Test system: Saccharomyces cerevisiae
- ASSAY COMMENT: protein stability index of tFT-peptide fusion (C-terminal peptide) (PSI (0-1 scale)); higher = more stable (slower turnover)
- SETUP CONDITIONS: genetic background: das1 deletion; temperature: 37 C
MEASURED PARAMETER: protein stability index
Please give the numeric answer without any surrounding text.

Guide cases for protein stability index, answers given:
GVFISFFFVFRF; 0.373
SVYLYFQVVAYG; 0.198
CSKGLSILLLLL; 0.634
VVLRCGCLVFIN; 0.644
GTRREFVILYLF; 0.694

Enquiry: Please indicate protein stability index recorded for `VCVVVLVGVVFL`
Return: 0.383

Enquiry: Please indicate protein stability index recorded for `VLVVTAFTFSCP`
Return: 0.416

Enquiry: Please indicate protein stability index recorded for `YNRKQEAAQKAN`
Return: 0.711

Enquiry: Please indicate protein stability index recorded for `FVVVGVLFLCVG`
Return: 0.479

Enquiry: Please indicate protein stability index recorded for `YVLLSRVSVFSA`
Return: 0.533

Enquiry: Please indicate protein stability index recorded for `FPTLHPAIPYLC`
Return: 0.712

Enquiry: Please indicate protein stability index recorded for `FRFGAKISLIVL`
Return: 0.584

Enquiry: Please indicate protein stability index recorded for `LRVLSVVRLSVW`
Return: 0.545

Enquiry: Please indicate protein stability index recorded for `LFFCYRVFLLVF`
Return: 0.243

Enquiry: Please indicate protein stability index recorded for `LLPSPLLLYSLS`
Return: 0.602

Enquiry: Please indicate protein stability index recorded for `LAINVRRELLFF`
Return: 0.766

Enquiry: Please indicate protein stability index recorded for `LQVPTLRLFVFF`
Return: 0.698

Enquiry: Please indicate protein stability index recorded for `LVWSGLIVVVGG`
Return: 0.318

* * *

- Test system: Saccharomyces cerevisiae
- ASSAY COMMENT: protein stability index of tFT-peptide fusion (C-terminal peptide) (PSI (0-1 scale)); higher = more stable (slower turnover)
- SETUP CONDITIONS: genetic background: wild type; temperature: 30 C
MEASURED PARAMETER: protein stability index
Please give the numeric answer without any surrounding text.

LRSLNIVGTTAL; 0.66
CLPPPARLPAPR; 0.683
DSSPSPYPRPPP; 0.729
VGVWWWWCFGSW; 0.595
GTSVGVRRKGVK; 0.708
RPSGFVGSDVRV; 0.629
KMRKIRSKRLKW; 0.681
GPPSVSPPFSPS; 0.783

Enquiry: Please indicate protein stability index recorded for `SPPPPPPHPSHP`
Return: 0.692
